Provide the reported Ratio Ki of each item.
species: Homo sapiens; experiment: Selectivity ratio of Ki for human carbonic anhydrase 2 to Ki for human carbonic anhydrase 9

[[record]]
molecule = "CC(=O)OC[C@H]1O[C@@H](NS(N)(=O)=O)[C@H](OC(C)=O)[C@@H](OC(C)=O)[C@@H]1OC(C)=O"
result = "< 17"


Parameters: items (list). Returns: Ratio Ki for each item.
1. C[C@@H]1O[C@@H](NS(N)(=O)=O)[C@@H](O)[C@H](O)[C@H]1O
2. CC(=O)OC[C@H]1O[C@@H](NS(N)(=O)=O)[C@H](OC(C)=O)[C@@H](OC(C)=O)[C@H]1OC(C)=O
3. CC(=O)OC[C@H]1O[C@@H](NS(N)(=O)=O)[C@@H](OC(C)=O)[C@@H](OC(C)=O)[C@@H]1OC(C)=O

[7, "< 17", "< 17"]
